Exercise: for every item that follows, state its recorded Ki.
- System tested: T1, ClpXP protease (E. coli ClpX6 with ClpP14) (E. coli, UniProt P0A6H1 1-424; P0A6G7 15-207)
- T1 construct: Purified recombinant proteins mixed in the assay; also called SspB-ClpXP (when SspB is added); not shown: N-terminal His6 tag from pET28a; C-terminal His6 tag from pQE70
- T1 sequence (P0A6H1 whole entry, chain 1 of 2): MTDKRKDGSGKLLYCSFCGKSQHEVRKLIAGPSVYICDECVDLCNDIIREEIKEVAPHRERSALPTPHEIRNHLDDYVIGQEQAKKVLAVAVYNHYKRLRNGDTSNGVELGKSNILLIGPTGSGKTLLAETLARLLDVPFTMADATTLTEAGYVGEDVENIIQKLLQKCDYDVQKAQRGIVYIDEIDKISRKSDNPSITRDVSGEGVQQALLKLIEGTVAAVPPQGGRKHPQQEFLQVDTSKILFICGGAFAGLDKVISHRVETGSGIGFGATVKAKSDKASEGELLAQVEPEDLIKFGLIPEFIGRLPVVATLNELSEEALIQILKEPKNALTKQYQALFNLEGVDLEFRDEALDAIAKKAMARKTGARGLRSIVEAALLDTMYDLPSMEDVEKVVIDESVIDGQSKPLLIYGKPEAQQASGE
- T1 sequence (P0A6G7 15-207, chain 2 of 2): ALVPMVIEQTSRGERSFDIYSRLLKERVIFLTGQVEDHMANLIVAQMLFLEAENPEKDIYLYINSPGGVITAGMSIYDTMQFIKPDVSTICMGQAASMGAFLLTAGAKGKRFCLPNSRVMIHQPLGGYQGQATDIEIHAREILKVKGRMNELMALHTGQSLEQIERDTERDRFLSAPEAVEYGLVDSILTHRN
- Procedure summary: GFP-tag proteolysis by ClpXP in the presence of SspB
Where no end group is shown, it is not given here.
One number for each entry, in µM.

CRGGRPALRVVK (The text calls XB the 11 C-terminal residues of E. coli SspB; also called linXB) [linear XB peptide, CRGGRPALRVVK] :: 6.4

Kindly review the next binder as well.
query: Look up and report measured Ki for this entry: CRGGRPALRVVK (also: cyclized in vitro, ring type not given here) [cycXB, cyclic XB peptide [CRGGRPALRVVK] (Table 4)]
result: 8.1
